# method-summary: colorimetric readout interference by compounds, confirmation, artefact control for Scp-1 inhibitor project, biochemical, single concentration (AID 540313);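 also: compounds added after enzyme reaction finished so only phosphate colour detection is probed; plate controls were DMSO wells with completed Scp-1 reaction for no effect and substrate wells lacking enzyme for full effect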
# settings: Colorimetric interference counterscreen, malachite green absorbance 630 nm; at 20 µM; hits give high values
Among all 2,500 compounds or so, fewer than 10 were called active. Not all results are given here.
readout-name: apparent inhibition (interference) (%)
Response body: numeric value in %, unit text excluded.

Return reported apparent inhibition (interference); argument: COc1ccc2[nH]c3c(C)c4cc[n+](C)cc4c(C)c3c2c1 -5.15

Return reported apparent inhibition (interference); argument: O=C(c1ccc(CS(=O)(=O)c2ccccc2)o1)N1CCN(c2ccccc2)CC1 -14.5

Return reported apparent inhibition (interference); argument: Cc1ccc(NC(=O)COc2ccc(/C=N\NC(=O)c3cccnc3)cc2)cc1C -15.6

Return reported apparent inhibition (interference); argument: C[C@H](CO)N1C[C@H](C)[C@H](CN(C)C(=O)Nc2ccc(C(F)(F)F)cc2)Oc2c(NC(=O)c3ccncc3)cccc2C1=O -21.4

Return reported apparent inhibition (interference); argument: COc1cccc2cc(-c3cc(=O)oc4cc(C)c(O)cc34)oc12 -23.3

Return reported apparent inhibition (interference); argument: COc1ccc(S(=O)(=O)c2c[nH]c(=S)[nH]c2=O)cc1Cl -5.98

Return reported apparent inhibition (interference); argument: COc1cccc2sc(N(CCCN(C)C)C(=O)C(c3ccccc3)c3ccccc3)nc12 -9.56

Return reported apparent inhibition (interference); argument: NC(=O)NC(=O)CSc1nc2cc([N+](=O)[O-])ccc2n1-c1cccc(C(F)(F)F)c1 -5.7

Return reported apparent inhibition (interference); argument: Cc1ccc(/C=C/C(=O)Nc2ccc([N+](=O)[O-])c(NC(=O)/C=C/c3ccc(C)o3)c2)o1 2.53

Return reported apparent inhibition (interference); argument: CN(CC(=O)Nc1cccc(F)c1)C(=O)C1CC(=O)N(CCc2ccccc2)C1 (centres undefined) -6.79

Return reported apparent inhibition (interference); argument: CC[n+]1c(C)n(-c2ccccc2)c2ccc(NC(C)=O)cc21 -13.9

Return reported apparent inhibition (interference); argument: O=C(NNC(=O)c1ccc2ccccc2c1)c1ccc(Cl)cc1 -9.26

Return reported apparent inhibition (interference); argument: CC(=O)Nc1ccc(N2C(=O)CCC2=O)cc1C -12.9

Return reported apparent inhibition (interference); argument: Cc1c(CCC(=O)O)c(=O)oc2cc(OCc3ccc(Br)cc3)ccc12 -11.7

Return reported apparent inhibition (interference); argument: COC(=O)C[n+]1cccc2ccccc21 -9.28

Return reported apparent inhibition (interference); argument: C=Cc1ccc(C(=O)N2CCCC(CCC(=O)N3CCN(c4ccccn4)CC3)C2)cc1 (centres undefined) -12.3

Return reported apparent inhibition (interference); argument: CN(c1ccccc1)S(=O)(=O)c1ccc(Cl)c(C(=O)OCC(=O)NCc2ccco2)c1 -22.8

Return reported apparent inhibition (interference); argument: COCCCNc1nc2ccccc2nc1NS(=O)(=O)c1ccc(F)cc1 -12.6

Return reported apparent inhibition (interference); argument: N#Cc1c(-c2cccs2)nc(SCC(=O)c2ccc(Br)cc2)[nH]c1=O -20.8

Return reported apparent inhibition (interference); argument: O=C(Cn1cc(/C=N/NC(=O)c2cccc(C(F)(F)F)c2)c2ccccc21)Nc1ccc(F)cc1 -10.9

Return reported apparent inhibition (interference); argument: Nn1cnnc1N/N=C/c1cc([N+](=O)[O-])c(Cl)cc1Cl 2.55

Return reported apparent inhibition (interference); argument: Cc1ccc(N=Cc2c(O)n(-c3nccs3)c(=O)c3ccccc23)c(C)c1 -22.5

Return reported apparent inhibition (interference); argument: Cc1ccc(CCNC(=O)c2ccc3nc4ccccc4c(=O)n3c2)cc1 0.61

Return reported apparent inhibition (interference); argument: C=C1c2cccc(OC)c2O[C@H](C(=O)OCC)[C@@H]1CCCCCC -7.63

Return reported apparent inhibition (interference); argument: COc1ccc(Cl)cc1C=CC=NNC(=O)c1ccncc1 -8.46

Return reported apparent inhibition (interference); argument: COc1ccc(N2CCN(C(=O)CSc3nc4cc(OC)c(OC)cc4cc3C#N)CC2)cc1 -7.08

Return reported apparent inhibition (interference); argument: CC(C)CCOc1ccc(C(=O)C[N+]2(C)CCOCC2)cc1 -0.2

Return reported apparent inhibition (interference); argument: O=C(COC(=O)c1ccc(F)cc1F)Nc1ncccn1 -16.9

Return reported apparent inhibition (interference); argument: O=C(O)c1ccc(N/N=C/c2ccc3ncccc3c2)cc1 -19.2

Return reported apparent inhibition (interference); argument: O=C(COC(=O)c1ccccc1O)NCc1ccco1 -13.4

Return reported apparent inhibition (interference); argument: Cc1ccc(CCCOC(=O)C[N+]2(C)CCCC2)cc1 -20

Return reported apparent inhibition (interference); argument: O=C(CN1CCN(c2ccc(Cl)cc2)CC1)c1ccccc1 -14.5

Return reported apparent inhibition (interference); argument: CC(C)c1ccc(NC(=S)NNc2ccc(Cl)c(C(=O)O)c2)cc1 -8.44

Return reported apparent inhibition (interference); argument: COc1cc(/C=C/C2=CC(C)(C)NC(=S)N2)cc(OC)c1OC -12

Return reported apparent inhibition (interference); argument: Cc1ccc(SCC(=O)NC(=O)NCc2ccco2)c(C)c1 -4.05

Return reported apparent inhibition (interference); argument: COc1cccc(NC(C)=[N+](C)CCNS(=O)(=O)c2ccc(Cl)cc2)c1 -6.24

Return reported apparent inhibition (interference); argument: COc1ccc(Cc2nnc(NC(=O)Cc3cccs3)s2)cc1 -7.35

Return reported apparent inhibition (interference); argument: CCOC(=O)C1CCCN(C(=O)CN(c2ccc(OC)cc2)S(=O)(=O)c2c(C)noc2C)C1 (centres undefined) -13.4

Return reported apparent inhibition (interference); argument: Cc1oc2c(C)c3oc(=O)c(CC(=O)N[C@@H](CC(C)C)C(=O)N[C@@H](Cc4ccccc4)C(=O)O)c(C)c3cc2c1C -9.01

Return reported apparent inhibition (interference); argument: COc1cc(SC)ccc1C(=O)NNC(=O)C1COc2ccccc2O1 (centres undefined) -1.3

Return reported apparent inhibition (interference); argument: COC(=O)CNC(=O)C(CCSC)NC(C)=O (centres undefined) -13.1

Return reported apparent inhibition (interference); argument: Cc1ccc(S(=O)(=O)Nc2nc(C)cc(-n3nc(C)cc3C)n2)cc1 -5.43

Return reported apparent inhibition (interference); argument: CCCCCN1CC(O)=C(c2nc(-c3ccc(Cl)cc3)cs2)C1=N -5.98

Return reported apparent inhibition (interference); argument: Cc1ccc(NC(=O)COC(=O)C2C3CC4OC(=O)C2C4C3)cc1Cl (centres undefined) -4.6

Reference source for all entries: PubChem BioAssay AID540313
